Source listed as PubChem BioAssay AID1417.

- tgt: Induced myeloid leukemia cell differentiation protein Mcl-1 (Homo sapiens)
- assay_explanation: Mcl-1/Noxa binding inhibitor potency, dose response, biochemical, TR-FRET (AID 1417)
- test_context: Mcl-1/Noxa peptide interaction, cell-free TR-FRET (terbium/rhodamine), 2 h; measured here: absolute IC50
IC50 reference
assay_endpoint: IC50 (µM)

* O=C(Nc1cccc(Oc2ccc(C(=O)O)c(C(=O)O)c2)c1)c1ccc(-c2ccccc2)cc1 | 3.61
* CC(C)Nc1nnc(SCC(=O)Nc2ccc3c(c2)C(=O)c2ccccc2C3=O)s1 | 2.01
* CC(/C=C/c1ccco1)=N/NC(=O)Cc1cccs1 | 4.32
* Cc1cc(=O)n2[nH]c(-c3ccsc3-n3c(C)ccc3C)cc2n1 | 2.89
* O=c1cc(-c2ccc(O)c(-c3c(O)cc(O)c4c(=O)cc(-c5ccc(O)cc5)oc34)c2)oc2cc(O)cc(O)c12 | 1.78
* CC(=O)c1ccc(NC(=O)CC2Nc3cccc4cccc(c34)NC2=O)cc1 (stereo not given) | 3.62
* O=C(O)CCCN1C(=O)/C(=C\c2ccc(-c3nc4ccccc4s3)o2)SC1=S | 1.12
* Cc1nc(N)sc1-c1csc(Nc2ncccn2)n1 | 3.98

* * *

- tgt: Induced myeloid leukemia cell differentiation protein Mcl-1 (Homo sapiens)
- assay_explanation: Mcl-1/Noxa binding inhibitor potency, dose response, biochemical, TR-FRET (AID 1417)
- test_context: Mcl-1/Noxa peptide interaction, cell-free TR-FRET (terbium/rhodamine), 2 h; measured here: absolute IC50
Mark TRUE for IC50 under 6 µM, FALSE if at or over.

• Cc1ccc2nc(N3C(=O)C(O)=C(C(=O)c4cc5ccccc5o4)C3c3cccs3)sc2c1 (stereo not given) = TRUE
• Cc1c(NS(=O)(=O)c2cc(NC(=O)CCN3CCCC(C)C3)ccc2Cl)c(=O)n(-c2ccccc2)n1C (stereo not given) = FALSE
• O=C(O)CCN1C(=O)/C(=C/c2cn(-c3ccccc3)nc2-c2cccs2)SC1=S = FALSE
• COc1ccc2nc(NC(=O)Nc3cccc4ccccc34)sc2c1 = FALSE
• COc1ccc(N2Cc3cccc(C(=O)O)c3C2=O)cc1 = TRUE
• CCn1nc(C)c(/C=N/NC(=O)Cc2ccc(Cl)cc2)c1C = FALSE
• CCNc1ccc(Br)cc(C(=O)/C=C/c2ccc(Cl)cc2)c1=O = TRUE
• Cc1cccc(C(=O)NC(=S)NNC(=O)c2ccc(Cl)cc2)c1 = FALSE
• Cc1[nH]c2ccccc2c1/C=C/c1nc2ccccc2c(=O)[nH]1 = FALSE
• Cc1ccc(-n2c(O)c(C=Nc3ccccc3-c3n[nH]c(=S)[nH]c3=O)c3ccccc3c2=O)cc1C = TRUE
• COc1ccc(/C=C2/C(=O)N(c3nc4ccccc4s3)N=C2CSc2ccc(Cl)cc2)cc1 = TRUE
• COc1ccc(N=C2S/C(=C\c3ccc(OC(C)C(=O)O)c(OC)c3)C(=O)N2CCc2c[nH]c3ccccc23)cc1 (stereo not given) = FALSE
• Nc1nc(=S)c2ncn(C3OC(CO)C(O)C3O)c2[nH]1 (stereo not given) = FALSE
• C=C(C)C(=O)Nc1cccc(C2=NOC3(C2)C[C@H](C(N)=O)N(C(=O)/C=C/C)C3)c1 (stereo not given in full) = TRUE
• Cc1c(C(=O)N/N=C/c2ccc(-c3ccccc3[N+](=O)[O-])o2)sc(N)c1C#N = TRUE
• CCc1n[nH]c(=S)n1/N=C/c1cc(OC)cc([N+](=O)[O-])c1O = TRUE
• COc1ccc2nc(-n3c(O)c(C4=c5ccccc5=NC4=O)[nH]c3=S)sc2c1 = TRUE
• Nc1c(C(=O)NC2CC2)sc2nc3c(c(-c4ccco4)c12)CC/C3=C/c1ccco1 = TRUE
• O=C(Nc1nc(-c2ccco2)c(-c2ccco2)s1)C1CC(=O)N(c2ccc3c(c2)OCCO3)C1 (stereo not given) = TRUE

* * *

- tgt: Induced myeloid leukemia cell differentiation protein Mcl-1 (Homo sapiens)
- assay_explanation: Mcl-1/Noxa binding inhibitor potency, dose response, biochemical, TR-FRET (AID 1417)
- test_context: Mcl-1/Noxa peptide interaction, cell-free TR-FRET (terbium/rhodamine), 2 h; measured here: absolute IC50
IC50 reference
assay_endpoint: IC50 (µM)

- CCN(c1ccc(NC(=O)COC(=O)/C=C/c2cccs2)cc1)C(C)C: 3.81
- COc1ccc2c3c(cccc13)N(C)N=C2C: 0.931
- O=C(Nc1ccc(Nc2ccncc2)cc1)c1ccc(Nc2ccnc3ccc([N+](=O)[O-])cc23)cc1[N+](=O)[O-]: 3.11

* * *

- tgt: Induced myeloid leukemia cell differentiation protein Mcl-1 (Homo sapiens) (UniProt Q07820)
- Sequence (Q07820 whole entry, looked up): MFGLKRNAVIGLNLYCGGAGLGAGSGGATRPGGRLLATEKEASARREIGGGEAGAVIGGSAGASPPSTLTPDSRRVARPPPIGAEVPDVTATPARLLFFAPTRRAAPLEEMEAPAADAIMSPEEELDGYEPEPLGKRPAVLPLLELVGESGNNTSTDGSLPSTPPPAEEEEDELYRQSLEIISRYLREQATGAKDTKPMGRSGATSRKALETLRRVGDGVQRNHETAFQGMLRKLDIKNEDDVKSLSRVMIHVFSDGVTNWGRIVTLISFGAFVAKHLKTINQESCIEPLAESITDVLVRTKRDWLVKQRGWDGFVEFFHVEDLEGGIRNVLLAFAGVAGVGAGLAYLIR
- assay_explanation: Mcl-1/Noxa binding inhibitor potency, dose response, biochemical, TR-FRET (AID 1417)
- test_context: Mcl-1/Noxa peptide interaction, cell-free TR-FRET (terbium/rhodamine), 2 h; measured here: absolute IC50
pIC50: −log10 of the molar value.
pIC50 reference
assay_endpoint: pIC50

* COc1cc(C2C(C#N)=C(N)OC3=C2C(=O)CCC3)c([N+](=O)[O-])cc1OC (stereo unspecified) | 5.29
* CC1CC1C(=O)OCC(=O)Nc1ccc2[nH]c(=O)[nH]c2c1 (stereo unspecified) | 5.36
* O=C(CSc1ccsc1[N+](=O)[O-])N1CCN(c2ccc(Cl)cc2)CC1 | 5.28
* Nc1ccc(O)c2c1C(=O)c1ccccc1C2=O | 5.73
* Cc1ccc(/C=C2\C(=O)NC(=S)N(c3ccccc3F)C2=O)s1 | 5.73
* COc1cc(/C=C(\C#N)c2nc3ccccc3s2)cc([N+](=O)[O-])c1O | 5.47
* CC(C)Cn1c(N)c(C(=O)COC(=O)c2cc(-c3ccco3)nc3ccccc23)c(=O)n(C)c1=O | 5.84
* COc1ccc(C(=O)C[n+]2ccc(-c3nnc4n3CCCCC4)cc2)cc1 | 4.64

* * *

IC50 reference
- tgt: Induced myeloid leukemia cell differentiation protein Mcl-1 (Homo sapiens) (UniProt Q07820)
- assay_explanation: Mcl-1/Noxa binding inhibitor potency, dose response, biochemical, TR-FRET (AID 1417)
- test_context: Mcl-1/Noxa peptide interaction, cell-free TR-FRET (terbium/rhodamine), 2 h; measured here: absolute IC50
assay_endpoint: IC50

- Oc1c(Cl)cc(Cl)c(Cl)c1Cc1c(O)c(Cl)cc(Cl)c1Cl: < 400 nM
- CCc1ccc(NC(=O)N(CCN2CCOCC2)Cc2ccc3c(c2)CCCN3CC)cc1: > 54000 nM
- COc1cc(C(Nc2ccccn2)c2ccc3ccc(C)nc3c2O)cc(OC)c1O (stereo not drawn): < 400 nM

* * *

- tgt: Induced myeloid leukemia cell differentiation protein Mcl-1 (Homo sapiens)
- assay_explanation: Mcl-1/Noxa binding inhibitor potency, dose response, biochemical, TR-FRET (AID 1417)
- test_context: Mcl-1/Noxa peptide interaction, cell-free TR-FRET (terbium/rhodamine), 2 h; measured here: absolute IC50
IC50 reference
assay_endpoint: IC50

• CC(C(=O)Nc1cc([N+](=O)[O-])ccc1Cl)N1CCN(c2ccc(O)cc2)CC1 (centres undefined) = > 54 µM
• CN(C)c1ccc(NC(=O)/C=C/c2ccccc2Cl)cc1 = < 0.4 µM
• CCCOc1ncnc2c1[nH]c1ccccc12 = > 54 µM
• O=C(Nc1cccc(S(=O)(=O)NC2=NCCCCC2)c1)c1cc(-c2ccco2)nc2ccccc12 = < 0.4 µM

* * *

- tgt: Induced myeloid leukemia cell differentiation protein Mcl-1 (Homo sapiens)
- assay_explanation: Mcl-1/Noxa binding inhibitor potency, dose response, biochemical, TR-FRET (AID 1417)
- test_context: Mcl-1/Noxa peptide interaction, cell-free TR-FRET (terbium/rhodamine), 2 h; measured here: absolute IC50
pIC50: −log10 of the molar value.
pIC50 reference
assay_endpoint: pIC50

- CCCCCc1nc2c(=O)[nH]c3ccccc3c2o1: < 4.27
- CCN(c1ccc(NC(=O)COC(=O)c2ccc(C)c(S(=O)(=O)N3CCOCC3)c2)cc1)C(C)C: < 4.27
- COc1ccc2c(c1)c1ccc3c(c1n2C)C(=O)C=CC3=O: > 6.40
- CC1C(=O)NN=C1C(=O)N/N=C\c1ccc(O)cc1O (stereo unspecified): > 6.40
- COC(=O)Nc1ccc(S(=O)(=O)NCc2ccccn2)cc1: < 4.27
- CSC1=N/C(=C\c2ccccc2F)C(=O)S1: < 4.27

* * *

IC50 reference
- tgt: Induced myeloid leukemia cell differentiation protein Mcl-1 (Homo sapiens) (UniProt Q07820)
- assay_explanation: Mcl-1/Noxa binding inhibitor potency, dose response, biochemical, TR-FRET (AID 1417)
- test_context: Mcl-1/Noxa peptide interaction, cell-free TR-FRET (terbium/rhodamine), 2 h; measured here: absolute IC50
assay_endpoint: IC50

* CCS(=O)(=O)N1CCN(C(C)CCc2ccccc2)CC1 (stereo unspecified) | > 54 µM
* CC1CCN(c2ccc(NC(=O)Cc3ccccc3)cc2)CC1 | > 54 µM
* C/C(=N\Nc1cccc(C(=O)O)c1)c1ccc2c(c1)Nc1ccccc1S2 | < 0.4 µM
* O=C(NCCCCc1ccccc1)C1CC(c2ccccc2[N+](=O)[O-])=NO1 (stereo unspecified) | > 54 µM
* O=C1OC(c2cccs2)=N/C1=C/c1ccc(-c2cccc(C(=O)O)c2)o1 | > 54 µM
* COc1ccc(CC(=O)n2[nH]c(=O)ccc2=O)cc1OC | < 0.4 µM
